A collection of sequences and their measured self-aminoacylation
- Test system: biotinyl-Leu-oxazolone
- Protocol summary: self-aminoacylation, catalytic enhancement (BLO) (fold over background); higher = more active; k-Seq, kA / k0A0; sequences stand for … in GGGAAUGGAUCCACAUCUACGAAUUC…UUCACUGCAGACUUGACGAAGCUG
This sample holds only a part of the variants without activity.
Property: self-aminoacylation

Item sequence: CUACACUUCAGGCAAUCGGUC [Fam1B.1 aminoacylation ribozyme variant]
Property: self-aminoacylation
Recorded number: 0.97
//
Item sequence: AUUGACCUAGGUCAUAGGGUG [Fam2.2 aminoacylation ribozyme variant]
Property: self-aminoacylation
Recorded number: 1.61
//
Item sequence: UUUACCCUGGUUAUCGAGUGA [Fam2.1 aminoacylation ribozyme variant]
Property: self-aminoacylation
Recorded number: 7.57
//
Item sequence: AAGUUUACUAAUAGUCGCGAG [Fam3.1 aminoacylation ribozyme variant]
Property: self-aminoacylation
Recorded number: 1.91
//
Item sequence: AUACUUCAAAUAAUCGGUCUG [Fam1A.1 aminoacylation ribozyme variant]
Property: self-aminoacylation
Recorded number: 0.998
//
Item sequence: AUUACCCGGAUCAUCGAGUGA [Fam2.1 aminoacylation ribozyme variant]
Property: self-aminoacylation
Recorded number: 7.92
//
Item sequence: CUACUGAAAACAAUCGGUCUG [Fam1A.1 aminoacylation ribozyme variant]
Property: self-aminoacylation
Recorded number: 0.708
//
Item sequence: CCACACUUCACGCUAUCGGUC [Fam1B.1 aminoacylation ribozyme variant]
Property: self-aminoacylation
Recorded number: 0.971

Each recorded value in this set is attributed to the supplement of paper PMC9233669.
